This collection of values is drawn from ChEMBL document CHEMBL1275447.

Method summary: AUC (0 to 24 hrs) in Pseudomonas aeruginosa ATCC 27853 infected neutropenic ICR mouse at 10 mg/kg, sc administered as single dose 2 hrs postinfection
Format: ADME, organism-based
Parameters: time < 24 hr, dose 10 mg/kg, route subcutaneous
Run conditions: plasma

| Compound | AUC(0-t) at 24 h |
| --- | --- |
| C[C@@H](O)[C@H]1C(=O)N2C(C(=O)O)=C(S[C@@H]3CN[C@H](CNS(N)(=O)=O)C3)[C@H](C)[C@H]12 [DORIPENEM] | 13500 ng·h/mL |

###

Method summary: AUC (0 to 24 hrs) in Pseudomonas aeruginosa ATCC 27853 infected neutropenic ICR mouse at 50 mg/kg, sc administered as single dose 2 hrs postinfection
Type: ADME, organism-based
Set-up: time < 24 hr, dose 50 mg/kg, route subcutaneous
Run conditions: plasma
Assay readout: AUC(0-t) at 24 h (ng·h/mL)

| Entry smiles | Assay readout | Unit abbrev | Measured |
| --- | --- | --- | --- |
| C[C@@H](O)[C@H]1C(=O)N2C(C(=O)O)=C(S[C@@H]3CN[C@H](CNS(N)(=O)=O)C3)[C@H](C)[C@H]12 | AUC(0-t) at 24 h | ng·h/mL | 62400 |

###

Method summary: Elimination rate constant in Pseudomonas aeruginosa ATCC 27853 infected neutropenic ICR mouse at 50 mg/kg, sc administered as single dose 2 hrs postinfection
Format: ADME, organism-based
Parameters: dose 50 mg/kg, route subcutaneous
Run conditions: in vivo

| Entry smiles | k el at 2 h (s⁻¹) |
| --- | --- |
| C[C@@H](O)[C@H]1C(=O)N2C(C(=O)O)=C(S[C@@H]3CN[C@H](CNS(N)(=O)=O)C3)[C@H](C)[C@H]12 | 0.000567 |

###

Method summary: Clearance in Pseudomonas aeruginosa ATCC 27853 infected neutropenic ICR mouse at 10 mg/kg, sc administered as single dose 2 hrs postinfection
Format: ADME, organism-based
Set-up: dose 10 mg/kg, route subcutaneous
Run conditions: in vivo

| Compound | Unit abbrev | CL/F |
| --- | --- | --- |
| C[C@@H](O)[C@H]1C(=O)N2C(C(=O)O)=C(S[C@@H]3CN[C@H](CNS(N)(=O)=O)C3)[C@H](C)[C@H]12 [DORIPENEM] | mL/min/kg | 11.2 |

###

Method summary: Elimination rate constant in Pseudomonas aeruginosa ATCC 27853 infected neutropenic ICR mouse at 150 mg/kg, sc administered as single dose 2 hrs postinfection
Format: ADME, organism-based
Parameters: dose 150 mg/kg, route subcutaneous
Run conditions: in vivo

| Molecule | k el at 2 h, s⁻¹ |
| --- | --- |
| C[C@@H](O)[C@H]1C(=O)N2C(C(=O)O)=C(S[C@@H]3CN[C@H](CNS(N)(=O)=O)C3)[C@H](C)[C@H]12 [DORIPENEM] | 0.000433 |

###

Method summary: Cmax in healthy human at 500 mg administered as as 4 hr infusion
Assay type: ADME, organism-based
Set-up: dose 500 mg
Run conditions: in vivo, iv

| Entry smiles | Cmax, ng/mL |
| --- | --- |
| C[C@@H](O)[C@H]1C(=O)N2C(C(=O)O)=C(S[C@@H]3CN[C@H](CNS(N)(=O)=O)C3)[C@H](C)[C@H]12 | 7790 |
